test: Drug permeability across SMI microtissues; conditions: human, A-B Papp, Table VIII; Transport A-B, 10 μM, 2 h, n = 3
assay-endpoint: Papp A→B at 2 h, 10 μM

{"molecule": "O=C1NC(c2ccccc2)(c2ccccc2)C(=O)N1COP(=O)(O)O [Fosphenytoin]", "endpoint-result": "12.3 ×10⁻⁶ cm/s"}
{"molecule": "Cc1ncc2n1-c1ccc(Cl)cc1C(c1ccccc1F)=NC2 [Midazolam]", "endpoint-result": "14.4 ×10⁻⁶ cm/s"}

* * *

test: in vitro; conditions: human, Caco-2

{"compound": "CC(=O)CC(c1ccccc1)c1c(O)c2ccccc2oc1=O (centres unmarked) [Warfarin]", "Papp A→B at 2 h, 10 μM": "27.8 ×10⁻⁶ cm/s"}
{"compound": "CNC(=C[N+](=O)[O-])NCCSCc1ccc(CN(C)C)o1 [Ranitidine]", "Papp A→B at 2 h, 10 μM": "0.2 ×10⁻⁶ cm/s"}

* * *

biological target: UniProt P08183; assay: in vitro; conditions: with Verapamil 100 uM
Sequence (P08183 whole entry): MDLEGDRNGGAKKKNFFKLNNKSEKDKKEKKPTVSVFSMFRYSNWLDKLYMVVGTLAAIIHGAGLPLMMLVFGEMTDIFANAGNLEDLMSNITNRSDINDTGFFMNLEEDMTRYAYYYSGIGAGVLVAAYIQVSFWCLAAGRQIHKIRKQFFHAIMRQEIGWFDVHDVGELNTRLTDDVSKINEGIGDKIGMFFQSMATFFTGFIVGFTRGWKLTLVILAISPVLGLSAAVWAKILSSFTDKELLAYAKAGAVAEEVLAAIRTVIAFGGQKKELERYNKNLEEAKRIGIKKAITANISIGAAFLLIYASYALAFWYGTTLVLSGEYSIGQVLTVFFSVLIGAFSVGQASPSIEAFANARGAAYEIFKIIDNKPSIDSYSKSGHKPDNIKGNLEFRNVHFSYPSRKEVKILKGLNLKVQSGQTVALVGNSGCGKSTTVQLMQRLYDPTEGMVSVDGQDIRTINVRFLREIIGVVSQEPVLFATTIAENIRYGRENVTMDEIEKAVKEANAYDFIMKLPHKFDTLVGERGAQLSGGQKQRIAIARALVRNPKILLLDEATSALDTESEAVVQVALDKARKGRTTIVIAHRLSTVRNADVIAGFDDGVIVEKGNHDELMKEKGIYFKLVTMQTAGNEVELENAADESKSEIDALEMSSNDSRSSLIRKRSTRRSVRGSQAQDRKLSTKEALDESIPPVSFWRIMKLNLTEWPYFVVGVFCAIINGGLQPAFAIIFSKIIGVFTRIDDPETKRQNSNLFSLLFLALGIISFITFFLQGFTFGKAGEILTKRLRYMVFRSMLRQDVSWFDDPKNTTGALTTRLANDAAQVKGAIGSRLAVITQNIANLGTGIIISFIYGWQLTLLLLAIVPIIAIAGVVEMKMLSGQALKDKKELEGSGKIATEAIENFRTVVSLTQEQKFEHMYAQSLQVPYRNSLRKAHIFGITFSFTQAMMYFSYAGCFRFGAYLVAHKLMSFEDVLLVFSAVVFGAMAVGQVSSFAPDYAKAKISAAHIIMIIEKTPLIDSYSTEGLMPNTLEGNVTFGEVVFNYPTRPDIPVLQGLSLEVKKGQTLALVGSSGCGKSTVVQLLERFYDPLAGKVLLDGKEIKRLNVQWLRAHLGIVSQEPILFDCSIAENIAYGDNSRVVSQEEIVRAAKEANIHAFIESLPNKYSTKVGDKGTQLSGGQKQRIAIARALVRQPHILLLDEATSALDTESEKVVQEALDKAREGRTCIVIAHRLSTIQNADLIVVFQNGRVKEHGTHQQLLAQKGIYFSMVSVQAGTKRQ
assay-endpoint: efflux ratio at 2 h, 10 μM

{"mol": "C[C@H]1O[C@@H](O[C@H]2[C@@H](O)C[C@H](O[C@H]3[C@@H](O)C[C@H](O[C@H]4CC[C@@]5(C)[C@H](CC[C@@H]6[C@@H]5C[C@@H](O)[C@]5(C)[C@@H](C7=CC(=O)OC7)CC[C@]65O)C4)O[C@@H]3C)O[C@@H]2C)C[C@H](O)[C@@H]1O", "assay-target": "UniProt P08183", "endpoint-result": 1.4}

* * *

assay: in vitro; conditions: human, Caco-2
Define the label as yes (1) when Papp at 2 h, 10 μM is strictly less than 0.9 ×10⁻⁶ cm/s and as no (0) in all remaining cases.

{"compound": "CCOC(=O)[C@H](CCc1ccccc1)N[C@@H](C)C(=O)N1CCC[C@H]1C(=O)O [Enalapril]", "class-assignment": "yes (1)"}
{"compound": "CC(=O)CC(c1ccccc1)c1c(O)c2ccccc2oc1=O (stereo not shown) [Warfarin]", "class-assignment": "no (0)"}
{"compound": "CCCC(=O)Nc1ccc(OCC(O)CNC(C)C)c(C(C)=O)c1 (stereo not shown) [Acebutolol]", "class-assignment": "yes (1)"}
{"compound": "CN/C(=N/CCSCc1nc[nH]c1C)NC#N [Cimetidine]", "class-assignment": "no (0)"}
{"compound": "CC[C@H]1OC(=O)[C@H](C)[C@@H](O[C@H]2C[C@@](C)(OC)[C@@H](O)[C@H](C)O2)[C@H](C)[C@@H](O[C@@H]2O[C@H](C)C[C@H](N(C)C)[C@H]2O)[C@](C)(O)C[C@@H](C)C(=O)[C@H](C)[C@@H](O)[C@]1(C)O [Erythromycin]", "class-assignment": "yes (1)"}
{"compound": "CNC(=C[N+](=O)[O-])NCCSCc1ccc(CN(C)C)o1 [Ranitidine]", "class-assignment": "yes (1)"}

* * *

experiment: in vitro; conditions: human, Lot #1 Mean A- > B Papp
assay-endpoint: Papp at 2 h, 10 μM (×10⁻⁶ cm/s)

{"molecule": "CC(=O)CC(c1ccccc1)c1c(O)c2ccccc2oc1=O (stereo not shown)", "assay-endpoint": "Papp at 2 h, 10 μM", "endpoint-result": 48.5}
